Below, each entry is listed with its recorded Tmax.
Test: Pharmacokinetic study in cynomolgus monkeys
Format: in vivo
Details: Oral (2 mg/kg), NA: no detectable
Form entry: value (h) — number only.

smiles notation: [2H]C([2H])([2H])CC(=O)c1cnc(NC(=O)C2CC2)cc1Nc1nccc(-c2ncn(C([2H])([2H])[2H])n2)c1OC
property name: Tmax
measurement unit: h
measured result: 2.0

Entry under test: "[2H]C([2H])([2H])CC(=O)c1cnc(Nc2cccc(C#N)n2)cc1Nc1cccc(-c2ncn(C([2H])([2H])[2H])n2)c1OC" . Its Tmax was 4

// recorded Tmax for "[2H]C([2H])([2H])CC(=O)c1cnc(Nc2ccc(C(C)(C)O)c(F)n2)cc1Nc1nccc(-c2ncn(C([2H])([2H])[2H])n2)c1OC" : 2.33

# Tmax (compound: "[2H]C([2H])([2H])CC(=O)c1cnc(NC(=O)C2CC2)cc1Nc1cccc(-c2ncn(C([2H])([2H])[2H])n2)c1OC" ) is 4.0
